I'd be grateful if you could share measured pIC50 for these entries.
- Tested on: MDA-MB-468
- ASSAY_INFO: Cytotoxicity against human MDA-MB-468 cells assessed as cell growth inhibition after 48 hrs by WST-1 assay
- Format: functional, cell-based
- ASSAY_SETUP: MDA-MB-468, 48 h
One number for each entry, as −log10 of the molar value.

Here's what some known entries look like.
>  <CHEMICAL_STRING>
Oc1ccc(/C=N\NC(=S)NC2CCCCC2)c(O)c1

>  <ASSAY_TARGET>
MDA-MB-468

>  <MEASURED_QUANTITY>
pIC50

>  <VALUE>
4.35

$$$$
>  <CHEMICAL_STRING>
COc1cccc(/C=N\NC(=S)NC2CCCCC2)c1

>  <ASSAY_TARGET>
MDA-MB-468

>  <MEASURED_QUANTITY>
pIC50

>  <VALUE>
4.33

$$$$
>  <CHEMICAL_STRING>
CN(C)c1ccc(/C=N\NC(=S)NC2CCCCC2)cc1

>  <ASSAY_TARGET>
MDA-MB-468

>  <MEASURED_QUANTITY>
pIC50

>  <VALUE>
3.55

$$$$
>  <CHEMICAL_STRING>
CCOc1ccc(/C=N\NC(=S)NC2CCCCC2)cc1

>  <ASSAY_TARGET>
MDA-MB-468

>  <MEASURED_QUANTITY>
pIC50

>  <VALUE>
3.60

$$$$
>  <CHEMICAL_STRING>
S=C(N/N=C\c1cccs1)NC1CCCCC1

>  <ASSAY_TARGET>
MDA-MB-468

>  <MEASURED_QUANTITY>
pIC50

>  <VALUE>
3.47

$$$$

Need pIC50 for each of these molecules.
1. Oc1cccc(/C=N\NC(=S)NC2CCCCC2)c1
2. S=C(N/N=C\c1ccc(Cl)cc1)NC1CCCCC1
3. Oc1ccc(/C=N\NC(=S)NC2CCCCC2)cc1

Outgoing:
1. 4.49
2. 4.38
3. 3.62

====

I'd be grateful if you could share measured IC50 for these entries.
- ASSAY_INFO: Cytotoxicity against human SKBR3 cells overexpressing HER2 assessed as cell growth inhibition after 48 hrs by WST-1 assay
- Type: functional, cell-based
- ASSAY_SETUP: SK-BR-3, 48 h
Remember to put the unit after the number in your answer.

Here's what some known entries look like.
>  <CHEMICAL_STRING>
COc1ccc(/C=N\NC(=S)NC2CCCCC2)cc1OC

>  <IC50>
47.9 µM

$$$$
>  <CHEMICAL_STRING>
CCOc1ccc(/C=N\NC(=S)NC2CCCCC2)cc1

>  <IC50>
29.9 µM

$$$$
>  <CHEMICAL_STRING>
O=[N+]([O-])c1ccccc1/C=N\NC(=S)NC1CCCCC1

>  <IC50>
46.5 µM

$$$$
>  <CHEMICAL_STRING>
O=[N+]([O-])c1cccc(/C=N\NC(=S)NC2CCCCC2)c1

>  <IC50>
34.6 µM

$$$$

Need IC50 for each of these compounds.
1. Oc1ccc(/C=N\NC(=S)NC2CCCCC2)c(O)c1
2. S=C(N/N=C\c1ccco1)NC1CCCCC1
3. O=[N+]([O-])c1ccc(/C=N\NC(=S)NC2CCCCC2)cc1
4. CN(C)c1ccc(/C=N\NC(=S)NC2CCCCC2)cc1
5. COc1cccc(/C=N\NC(=S)NC2CCCCC2)c1
6. S=C(N/N=C\c1ccc(Cl)cc1)NC1CCCCC1
7. Oc1ccc(/C=N\NC(=S)NC2CCCCC2)cc1

Outgoing:
1. 27.7 µM
2. 45.7 µM
3. 41 µM
4. 31.2 µM
5. 30.9 µM
6. 32.2 µM
7. 29.9 µM

Need IC50 for each of these compounds.
1. Oc1cccc(/C=N\NC(=S)NC2CCCCC2)c1
2. S=C(N/N=C\c1cccs1)NC1CCCCC1
3. S=C(N/N=C\c1ccc2c(c1)OCO2)NC1CCCCC1
4. O=c1[nH]cc(F)c(=O)[nH]1

Outgoing:
1: 25.6 µM; 2: 30.4 µM; 3: 61.6 µM; 4: 38.9 µM
